Consider the following compounds; for each one, report its IC50.
- Measured On: hD4.2 receptor (Homo sapiens, UniProt P21917, DEL265-296)
- Construct: purchased BioSignal Packard Inc., Montreal, Canada
- Sequence (P21917 with tags, fused parts or gaps DEL265-296): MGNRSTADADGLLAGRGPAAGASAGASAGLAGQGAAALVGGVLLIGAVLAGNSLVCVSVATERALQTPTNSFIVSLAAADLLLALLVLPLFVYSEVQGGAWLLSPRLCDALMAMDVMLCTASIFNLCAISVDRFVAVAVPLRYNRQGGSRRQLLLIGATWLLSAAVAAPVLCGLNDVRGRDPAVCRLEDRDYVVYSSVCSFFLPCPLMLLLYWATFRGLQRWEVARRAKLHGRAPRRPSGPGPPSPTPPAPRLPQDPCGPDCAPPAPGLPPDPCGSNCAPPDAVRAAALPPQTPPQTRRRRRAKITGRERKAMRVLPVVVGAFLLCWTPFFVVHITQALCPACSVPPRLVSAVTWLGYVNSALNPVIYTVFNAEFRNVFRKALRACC
- Assay Comment: Radioligand binding, dopamine D4 ([3H]YM-09151-2)
- Test Parameters: Table 4; [3H]YM-09151-2 0.06 nM; read-out: Binding affinity, IC50 (nM) D4
Expressed in nM, but write only the number.

[in] // fetch hD4.2 receptor (Homo sapiens, UniProt P21917, DEL265-296) IC50 for CC1(c2ccc(O)cc2)C(=O)c2c(N3CCNCC3)cc(Cl)cc2N(Cc2ccc3ccccc3c2)C1=O (stereo not drawn)
[out] 8980

[in] Recorded IC50 for CC1(c2ccc(O)cc2)C(=O)c2c(N3CCNCC3)cc(Cl)cc2N(Cc2ccc3ccccc3n2)C1=O (stereo not drawn) with hD4.2 receptor (Homo sapiens, UniProt P21917, DEL265-296), please?
[out] 8510

[in] Please state recorded IC50 (tested on hD4.2 receptor (Homo sapiens, UniProt P21917, DEL265-296)) of CC1(c2ccc(Cl)cc2)C(=O)c2c(N3CCNCC3)cc(Cl)cc2N(Cc2ccccc2)C1=O (stereo not drawn)
[out] 8090

[in] Hi! What's the reported IC50 for CN1CCN(c2cc(Cl)cc3c2C(=O)C(C)(c2ccc(O)cc2)C(=O)N3Cc2cccc([N+](=O)[O-])c2)CC1 (stereo not drawn) on hD4.2 receptor (Homo sapiens, UniProt P21917, DEL265-296)?
[out] 9150

[in] Lab note: need IC50 with hD4.2 receptor (Homo sapiens, UniProt P21917, DEL265-296) for entry CC1(c2ccc(O)cc2)C(=O)c2c(N3CCNCC3)cc(Cl)cc2N(Cc2cccc(Br)c2)C1=O (stereo not drawn) , please look it up.
[out] 9350

[in] Hello, I am looking for reported IC50 with hD4.2 receptor (Homo sapiens, UniProt P21917, DEL265-296) for CC1(c2ccc(I)cc2)C(=O)c2c(N3CCNCC3)cc(Cl)cc2N(Cc2ccccc2)C1=O (stereo not drawn) . Could you help?
[out] 5870

[in] Provide the documented IC50 with hD4.2 receptor (Homo sapiens, UniProt P21917, DEL265-296) as the system for CC1(c2ccc(O)cc2)C(=O)c2c(N3CCNCC3)cc(Cl)cc2N(CC2CCCCC2)C1=O (stereo not drawn)
[out] 8780

[in] What measured IC50 is associated with COc1ccc(C2(C)C(=O)c3c(N4CCNCC4)cc(Cl)cc3N(CC3CCCCC3)C2=O)cc1 (stereo not drawn) on hD4.2 receptor (Homo sapiens, UniProt P21917, DEL265-296)?
[out] 9010

[in] Short answer please: IC50, hD4.2 receptor (Homo sapiens, UniProt P21917, DEL265-296), entry CN1CCN(c2cc(Cl)cc3c2C(=O)[C@@](C)(c2ccc(N)cc2)C(=O)N3Cc2ccccc2)CC1 (stereo in doubt)
[out] 8190

[in] Param readout= IC50; system= hD4.2 receptor (Homo sapiens, UniProt P21917, DEL265-296); entry= CCN(CC)c1ccc(C2(C)C(=O)c3c(N4CCNCC4)cc(Cl)cc3N(Cc3ccccc3)C2=O)cc1 (stereo not drawn) ; returns value.
[out] 9110

[in] IC50 of CC1(c2ccc(N)cc2)C(=O)c2c(N3CCNCC3)cc(Cl)cc2N(Cc2ccccc2)C1=O (stereo not drawn) on hD4.2 receptor (Homo sapiens, UniProt P21917, DEL265-296)?
[out] 8910

[in] What IC50 appears in the records for this compound with hD4.2 receptor (Homo sapiens, UniProt P21917, DEL265-296)? COc1cccc(C2(C)C(=O)c3c(N4CCNCC4)cc(Cl)cc3N(Cc3ccccc3)C2=O)c1 (stereo not drawn)
[out] 9040

[in] For the record CC1(c2ccc(O)cc2)C(=O)c2c(N3CCNCC3)cc(Cl)cc2N(Cc2ccc(-c3ccccc3)cc2)C1=O (stereo not drawn) , what value of IC50 is listed for hD4.2 receptor (Homo sapiens, UniProt P21917, DEL265-296)?
[out] 9410

[in] Item: COc1ccc(CN2C(=O)C(C)(c3ccc(OC)cc3)C(=O)c3c(N4CCNCC4)cc(Cl)cc32)cc1 (stereo not drawn) Test system: hD4.2 receptor (Homo sapiens, UniProt P21917, DEL265-296) Read-out: IC50 Value: ?
[out] 8710

[in] Under hD4.2 receptor (Homo sapiens, UniProt P21917, DEL265-296): IC50 value of CCNc1ccc(C2(C)C(=O)c3c(N4CCNCC4)cc(Cl)cc3N(Cc3ccccc3)C2=O)cc1 (stereo not drawn) ?
[out] 8990

[in] Lab request: please report IC50 under test system hD4.2 receptor (Homo sapiens, UniProt P21917, DEL265-296) for CC1(c2ccc(Br)cc2)C(=O)c2c(N3CCNCC3)cc(Cl)cc2N(Cc2ccccc2)C1=O (stereo not drawn)
[out] 8990

[in] Identify the measured IC50 of CC1(c2cccc(O)c2)C(=O)c2c(N3CCNCC3)cc(Cl)cc2N(Cc2ccccc2)C1=O (stereo not drawn) for hD4.2 receptor (Homo sapiens, UniProt P21917, DEL265-296).
[out] 9460

The measured values listed here are drawn from patent US20080275058A1.
